Collected pIC50 values appear next to each entry.
Target: full-length proMMP9(1-707) activation by catalytic MMP3 (Homo sapiens, UniProt P14780, R574P)
Sequence (P14780 20-707 R574P): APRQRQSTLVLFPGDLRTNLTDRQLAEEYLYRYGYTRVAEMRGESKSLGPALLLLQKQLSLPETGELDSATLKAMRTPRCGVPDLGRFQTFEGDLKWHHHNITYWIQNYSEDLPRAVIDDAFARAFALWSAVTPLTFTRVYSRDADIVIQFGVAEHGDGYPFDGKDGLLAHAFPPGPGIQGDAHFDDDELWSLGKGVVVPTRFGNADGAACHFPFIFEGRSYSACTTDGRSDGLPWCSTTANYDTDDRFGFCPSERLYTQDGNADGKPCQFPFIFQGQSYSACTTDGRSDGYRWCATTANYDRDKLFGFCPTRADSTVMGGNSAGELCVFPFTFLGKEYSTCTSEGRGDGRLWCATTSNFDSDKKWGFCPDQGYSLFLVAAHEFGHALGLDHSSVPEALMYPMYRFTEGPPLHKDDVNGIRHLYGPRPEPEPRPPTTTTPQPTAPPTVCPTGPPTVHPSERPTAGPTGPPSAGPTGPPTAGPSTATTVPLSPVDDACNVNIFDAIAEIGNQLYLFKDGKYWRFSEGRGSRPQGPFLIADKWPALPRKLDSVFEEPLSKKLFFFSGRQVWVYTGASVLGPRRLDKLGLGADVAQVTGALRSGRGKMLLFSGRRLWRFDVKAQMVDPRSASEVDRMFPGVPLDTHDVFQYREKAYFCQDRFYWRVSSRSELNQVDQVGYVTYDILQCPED
Assay: proMMP9/MMP3 P126 Activation Assay
Assay type: biochemical
Design: made in house; host or cells: E. coli (MMP3)
Settings: proMMP9 from HEK293 cells
pIC50: −log10 of the molar value.
Endpoint: pIC50

1) Cc1nc(N)sc1-c1csc(Nc2ccccc2OC(C)C)n1
5.70
2) COc1ccc(Br)cc1Nc1nc(-c2sc(N)nc2C)cs1
5.48
3) COc1ccc(F)cc1Nc1nc(-c2cccnc2)cs1
5.44
4) COc1ccccc1Nc1nc(-c2sc(N)nc2C)cs1
5.60
5) COc1ccccc1Nc1nc(-c2sc(NS(C)(=O)=O)nc2C)cs1
5.40
6) COc1ccc(F)cc1Nc1nc(-c2ccc3c(c2)ncn3C)cs1
5.72
7) COc1ccc(Br)cc1Nc1nc(-c2sc(NC(C)=O)nc2C)cs1
5.55
8) COc1ccc(F)cc1Nc1nc(-c2ccc(N3CCN(C4CC4)CC3)nc2)cs1
6.00
